Tested on: UACC-62 melanoma
test description: NCI-60 one-dose screen, 48 h (100 = growth as untreated, 0 = no growth, -100 = all killed)
condition label: 10 µM unless noted
Compounds without any hit were thinned out: in the full panel of roughly 83,000, 20% have a hit.
Recorded growth by entry
measured attribute: growth (%)

1. C=CCn1c(SCC(=O)Nc2ccc(C(=O)/C=C/c3ccc(Cl)cc3)cc2)nnc1-c1cc(OC)c(OC)c(OC)c1 | 70.4
2. CCOC(=O)C1=C(C)n2nc(CC#N)c(C#N)c2NC1c1ccc(CC)cc1 (configuration not stated) | 94.5
3. COc1cc(-c2nn(-c3ccc(Br)cc3)cc2CO)ccc1O | 78.9
4. C#CCN(CCCOc1ccc(Cl)cc1Cl)CCCSC(=O)CCCCCN1/C(=C\C=C2/CCCC(/C=C/C3=[N+](CCCCCC(=O)[O-])c4ccccc4C3(C)C)=C2Cl)C(C)(C)c2ccccc21 | -25.8
5. COc1ccc(-c2nc(C#N)c(NCC(c3ccco3)N3CCCC3)o2)cc1 (configuration not stated) | 47.2
6. O=c1c2ccccc2oc2ccc(OCCCCCN3CCCCCC3)cc12 | 2.08
7. COC(=O)/C=C1\SC(=Nc2ccc(C(F)(F)F)cc2)N(CCc2c[nH]c3ccccc23)C1=O | -62.5
8. CCCCC(=O)Nc1c(C(=O)Nc2ccccc2)sc2nc3c(cc12)C(OC(=O)CCCC)CCC3 (configuration not stated) | 87.6
9. Cc1cnc(SCc2ccc(Cl)cc2Cl)nc1Nc1ccc(Cl)c(Cl)c1 | 53.4
10. COc1ccc(Sc2[nH]c(C(C)=O)c3ccccc23)cc1 | 47.1
11. Cc1cccc(NC(=O)c2sc3nc4c(cc3c2N)CN(Cc2ccccc2)CC4)c1C | 42.8
12. COc1ccc2c(c1)C1(C(=O)N2)C(C#N)=C(c2ccccc2)Nc2c1c(-c1ccccc1)nn2-c1ccccc1 (configuration not stated) | 85.1
13. CCc1ccc(OCc2ccccc2C(=O)Nc2ccc3nc(C)cc(N)c3c2)cc1 | -92.6
14. C#C[C@@]1(O)[C@@H](CO)O[C@@H](n2cc(I)c3c(N)ncnc32)[C@@H]1O | 4.29
15. COc1cc2c(cc1OCCCOc1cc3c(cc1OC)C(=O)N1CC(F)(F)C[C@H]1C=N3)N=C[C@@H]1CC(F)(F)CN1C2=O | -71.2
16. O=c1[nH]c2ccccc2cc1-c1nc2ccc(Cl)cc2[nH]1 | 43
17. COc1ccc(/C=C/C(=O)Nc2ncnc3nc[nH]c23)cc1 | 81.8
18. CSc1cccc(NC(=O)Nc2nc3c(C)cccc3s2)c1 | 78.3
19. COc1cc2nc3c(=O)n(CCN(C)C)cnn3c(=O)c2cc1OC | 101
20. COc1ccc2nc(-c3ccc(OC)c(OC)c3)cc(-c3nnc(SCC(=O)Nc4ccc(/C(C)=N\O)cc4)n3-c3ccccc3)c2c1 | 71.1
21. COc1ccc2c(c1)/C(=C1\S/C(=N/c3nnc(C)s3)NC1=O)C(=O)N2Cc1ccc(Cl)cc1 | 32.8
22. CCOC(=O)c1c(C)nc2c(c1N)/C(=C/c1cccs1)C(=O)N2c1ccc(OC)cc1 | 38.3
23. CC1CCCN(CCCCCOc2ccc3oc4ccccc4c(=O)c3c2)C1 (configuration not stated) | -26.5
24. OCCNc1nc(NCCO)nc(Nc2ccc(C3=NN(c4cc(Cl)cc(Cl)c4)C(c4ccc(C(F)(F)F)cc4)C3)cc2)n1 (configuration not stated) | 47.1
25. CCCCc1n(Cc2ccc3ccccc3c2)c2ccccc2[n+]1Cc1ccc2ccccc2c1 | -92.3
26. Nc1cc(N)c(S(=O)(=O)O)cc1N=Nc1cc([N+](=O)[O-])ccc1O | 92.1
27. COc1cc(/C=N/Nc2nc(-c3ccc(F)cc3)c(C#N)c(N3CCOCC3)n2)ccc1O | 99
28. NC[C@@H]1CCN(c2cc3c(cc2F)c(=O)n(N)c(=O)n3Cc2ccc(-c3ccccc3)cc2)C1 | 94.6
29. CCOC(=O)NCCc1nc2c([nH]1)c(=O)n(C)c(=O)n2C | 100
30. C=C(C)[C@@H]1CC[C@]2(C(=O)OCCOCCOCC[P+](c3ccccc3)(c3ccccc3)c3ccccc3)CC[C@]3(C)[C@H](CC[C@@H]4[C@@]5(C)CC[C@H](OC(=O)C(Cl)Cl)C(C)(C)[C@@H]5CC[C@]43C)[C@@H]12 | -39.3
31. O=C(NCc1ccccc1)c1ccc2c(c1)NC(=O)[C@@H]1CCCN21 | 93.7
32. Nc1c(C(=O)Nc2cccc3ccccc23)sc2nc3c(cc12)CCCCCC3 | 32.4
33. CC1(c2ccccc2Cl)NC(=O)NC1=O (configuration not stated) | 95.5
34. N#CC1(C#N)C2=C(CCCC2)NC(c2c(F)cccc2Cl)C1(C#N)C#N (configuration not stated) | 40.8
35. COc1ccc(NC(=O)Nc2ccc(Nc3nc(C)cc(Nc4ccc(C)cc4)n3)cc2)cc1 | -83
36. CCOCc1nc2ccccc2c(=O)[nH]1 | 102
37. NS(=O)(=O)c1ccc(-n2ncc(NC(=O)Nc3ccc(S(=O)(=O)Nc4nccs4)cc3)c2-c2ccccc2)cc1 | 98.4
